Entry source: the supplement of paper PMC9112550

# Test system: Escherichia coli TOP10;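 also: peptides expressed intracellularly from a pBAD plasmid library in pooled LB shake-flask culture, induced with 0.3% L-arabinose, DNA abundance read by NGS, three biological replicates, DESeq2 with apeglm shrinkage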
# assay summary: shrunken log2 fold change of peptide-encoding DNA abundance (4.5 h post-induction vs induction); higher = less antimicrobial activity (less host growth inhibition)
# condition notes: time post-induction: 4.5 h; library: site-saturation at positions 5, 18, 19, 20
assay endpoint: shrunken log2 fold change

* RRIRYRPPRLPRPRPRPGHGPRP | -0.111
* RRIRRRPPRLPRPRPRPSRRPRP | -0.0701
* RRIRERPPRLPRPRPRPSTSPRP | -0.145
* RRIRGRPPRLPRPRPRPQTEPRP | 0.149
* RRIRLRPPRLPRPRPRPGVSPRP | -0.161
* RRIRMRPPRLPRPRPRPMSRPRP | 0.0997
* RRIRQRPPRLPRPRPRPAMNPRP | -0.115
* RRIRTRPPRLPRPRPRPKHAPRP | 0.0369
* RRIRFRPPRLPRPRPRPCLVPRP | -0.208
* RRIRFRPPRLPRPRPRPAYKPRP | -0.314
* RRIRRRPPRLPRPRPRPGMDPRP | 0.0814
* RRIRMRPPRLPRPRPRPYKEPRP | 0.0136
* RRIRRRPPRLPRPRPRPMWPPRP | 0.265
* RRIRFRPPRLPRPRPRPNVFPRP | -0.108
* RRIRIRPPRLPRPRPRPSQYPRP | -0.555
* RRIRCRPPRLPRPRPRPYDEPRP | -0.144
* RRIRLRPPRLPRPRPRPMEIPRP | -0.00427
* RRIRQRPPRLPRPRPRPPNMPRP | -0.089
* RRIRARPPRLPRPRPRPLQRPRP | 0.58
* RRIRHRPPRLPRPRPRPSVFPRP | -0.424
* RRIRYRPPRLPRPRPRPYMTPRP | -0.271
* RRIRDRPPRLPRPRPRPQWDPRP | 0.101
* RRIRIRPPRLPRPRPRPSMEPRP | -0.343
* RRIRDRPPRLPRPRPRPCVMPRP | 0.543
* RRIRNRPPRLPRPRPRPFLGPRP | -0.00194
* RRIRGRPPRLPRPRPRPWVDPRP | 0.308
* RRIRTRPPRLPRPRPRPYRAPRP | -0.0709
* RRIRTRPPRLPRPRPRPNIEPRP | 0.105
* RRIRCRPPRLPRPRPRPAYFPRP | -0.361
* RRIRARPPRLPRPRPRPPWLPRP | 0.495
* RRIRRRPPRLPRPRPRPRKPPRP | 0.153
* RRIRLRPPRLPRPRPRPNACPRP | 0.127
* RRIRCRPPRLPRPRPRPLVEPRP | 0.102
* RRIRFRPPRLPRPRPRPEDHPRP | 0.000834
* RRIRWRPPRLPRPRPRPKNAPRP | 0.202
* RRIRIRPPRLPRPRPRPKEIPRP | -0.113
* RRIRKRPPRLPRPRPRPAFFPRP | 0.411
* RRIRMRPPRLPRPRPRPEWEPRP | -0.00306
* RRIRQRPPRLPRPRPRPGDNPRP | -0.203
* RRIRPRPPRLPRPRPRPAYEPRP | 0.0834
* RRIRDRPPRLPRPRPRPVHLPRP | -0.23
* RRIRLRPPRLPRPRPRPCVAPRP | 0.238
* RRIRYRPPRLPRPRPRPIGTPRP | -0.1
* RRIRPRPPRLPRPRPRPECVPRP | 0.541
* RRIRGRPPRLPRPRPRPGTAPRP | 2.14
* RRIRHRPPRLPRPRPRPFAHPRP | 0.186
* RRIRPRPPRLPRPRPRPRSDPRP | 0.179
* RRIRWRPPRLPRPRPRPCSKPRP | -0.0575
* RRIRWRPPRLPRPRPRPIDRPRP | -0.156
* RRIRERPPRLPRPRPRPCRDPRP | 0.0284
* RRIRHRPPRLPRPRPRPNNEPRP | -0.724
* RRIRQRPPRLPRPRPRPPTRPRP | 0.398
* RRIRPRPPRLPRPRPRPQQNPRP | 0.076
* RRIRPRPPRLPRPRPRPCYSPRP | -0.507
* RRIRMRPPRLPRPRPRPHWCPRP | -0.153
* RRIRNRPPRLPRPRPRPVRWPRP | 0.703
* RRIRQRPPRLPRPRPRPHYYPRP | -0.0332
* RRIRMRPPRLPRPRPRPVPPPRP | 0.901
* RRIRIRPPRLPRPRPRPCVIPRP | -0.0683
* RRIRQRPPRLPRPRPRPYLQPRP | 0.000139
* RRIRNRPPRLPRPRPRPQATPRP | 0.991
* RRIRRRPPRLPRPRPRPPNSPRP | -0.0871
* RRIRTRPPRLPRPRPRPKGQPRP | 0.0118
